- system-under-test: MMP-2 (Homo sapiens, UniProt P08253)
- Construct: purchased Sino Biological 10082-HNAH
- Sequence (P08253 110-660): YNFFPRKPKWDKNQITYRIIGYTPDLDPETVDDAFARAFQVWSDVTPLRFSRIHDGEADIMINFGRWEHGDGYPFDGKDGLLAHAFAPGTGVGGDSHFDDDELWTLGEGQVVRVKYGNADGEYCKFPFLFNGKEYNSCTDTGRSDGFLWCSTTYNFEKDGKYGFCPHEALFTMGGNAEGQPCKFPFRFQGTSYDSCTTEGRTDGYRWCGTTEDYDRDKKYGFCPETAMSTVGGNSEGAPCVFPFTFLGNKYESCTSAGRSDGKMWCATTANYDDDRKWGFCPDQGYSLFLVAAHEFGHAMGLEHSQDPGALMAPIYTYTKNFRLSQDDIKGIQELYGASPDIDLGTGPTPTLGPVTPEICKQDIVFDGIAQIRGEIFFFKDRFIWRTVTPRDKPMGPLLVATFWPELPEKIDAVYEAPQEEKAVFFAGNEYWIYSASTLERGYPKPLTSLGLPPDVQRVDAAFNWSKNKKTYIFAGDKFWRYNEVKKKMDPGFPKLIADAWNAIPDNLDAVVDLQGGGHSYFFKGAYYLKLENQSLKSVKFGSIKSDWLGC
- test-protocol: MMP-2 inhibition assay (fluorogenic peptide substrate)
- Format: biochemical
- experimental-context: mean ± SE; n.d: not detected; Fig. 5d unit inferred, µM; read-out: IC50
Each record's IC50 is compared with bottom end = under 100 µM, midrange = from 100 µM up to 200 µM, top end = 200 µM and over to give its class.

{"sample-smiles": "O=C(CSCCNC(=O)c1cncc(O)c1)NCC12CC3CC(CC(C3)C1)C2", "answer-label": "midrange"}
{"sample-smiles": "O=C(Cn1cnc2c(oc3ccccc32)c1=O)NCCCCCCCCNC(=O)c1cncc(O)c1", "answer-label": "midrange"}
{"sample-smiles": "Cc1cc(=O)[nH]c(-n2nc(C)c(CCC(=O)NCCNC(=O)c3cncc(O)c3)c2C)n1", "answer-label": "midrange"}
{"sample-smiles": "O=C(CSCCNC(=O)Cn1cnc2c(oc3ccccc32)c1=O)NCc1c[nH]nn1", "answer-label": "bottom end"}
{"sample-smiles": "Cc1cc(=O)[nH]c(-n2nc(C)c(CCC(=O)NCCSCC(=O)NCCNC(=O)c3cnc4c(c3)nc(O)n4C)c2C)n1", "answer-label": "top end"}
{"sample-smiles": "Cc1cc(=O)[nH]c(-n2nc(C)c(CCC(=O)NCCSCC(=O)NCc3c[nH]nn3)c2C)n1", "answer-label": "midrange"}
{"sample-smiles": "Cc1cc(=O)[nH]c(-n2nc(C)c(CCC(=O)NCCNC(=O)CSCCNC(=O)c3cncc(O)c3)c2C)n1", "answer-label": "bottom end"}
{"sample-smiles": "O=C(CNC(=O)NC12CC3CC(CC(C3)C1)C2)NCCSCC(=O)NCc1c[nH]nn1", "answer-label": "top end"}
{"sample-smiles": "O=C(CNC(=O)NC12CC3CC(CC(C3)C1)C2)NCCOCCOCCNC(=O)c1cncc(O)c1", "answer-label": "top end"}
{"sample-smiles": "O=C(Cn1cnc2c(oc3ccccc32)c1=O)NCCOCCOCCNC(=O)c1cncc(O)c1", "answer-label": "bottom end"}
{"sample-smiles": "Cn1c(O)nc2cc(C(=O)NCCCCC=CC(=O)CC(=O)NCCNC(=O)Cn3cnc4c(oc5ccccc54)c3=O)cnc21", "answer-label": "bottom end"}
{"sample-smiles": "Cc1cc(=O)[nH]c(-n2nc(C)c(CCC(=O)O)c2C)n1", "answer-label": "midrange"}
{"sample-smiles": "Cc1cc(=O)[nH]c(-n2nc(C)c(CCC(=O)NCCNC(=O)CC(=O)C=CCCCCNC(=O)c3cnc4c(c3)nc(O)n4C)c2C)n1", "answer-label": "top end"}
{"sample-smiles": "O=C(CCC(=O)NCc1c[nH]nn1)NCCOCCOCCNC(=O)Cn1cnc2c(oc3ccccc32)c1=O", "answer-label": "midrange"}

====

- system-under-test: bovine trypsin (Bos taurus)
- Construct: purchased Sigma-Aldrich T8003
- Sequence (P00760 24-246): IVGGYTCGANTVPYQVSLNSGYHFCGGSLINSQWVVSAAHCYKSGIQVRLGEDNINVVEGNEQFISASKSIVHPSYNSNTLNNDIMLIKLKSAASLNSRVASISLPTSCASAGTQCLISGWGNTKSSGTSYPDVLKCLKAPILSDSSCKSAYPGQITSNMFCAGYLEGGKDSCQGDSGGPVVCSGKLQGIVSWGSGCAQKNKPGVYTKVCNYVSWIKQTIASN
- test-protocol: Trypsin inhibition assay (proteolytic activity on BApNA)
- Format: biochemical
- experimental-context: Concentration 8000 nM; fraction of uninhibited activity; read-out: mean (Figure 3c, dose-response, relative trypsin activity)
Strictly below 40% in remaining activity at 8 µM: True. Otherwise: False.

{"compound": "N=C(N)c1ccc(CNC(=O)C2CCC(C(=O)NCCNC(=S)Nc3cccc(I)c3)CC2)cc1 (centres unmarked) [Compound T-3]", "system-under-test": "bovine trypsin (Bos taurus)", "answer-label": "True"}
{"compound": "N=C(N)c1ccc(CN)cc1 [4-Aminomethyl benzamidine, 4-aminomethyl benzamidine, reference compound]", "system-under-test": "bovine trypsin (Bos taurus)", "answer-label": "False"}
{"compound": "N=C(N)c1ccc(CNCc2ccc(C(=O)NCCNC(=S)Nc3cccc(I)c3)cc2)cc1 [Compound T-2]", "system-under-test": "bovine trypsin (Bos taurus)", "answer-label": "True"}
{"compound": "S=C=Nc1ccccc1I [Compound B, 2-iodophenyl isothiocyanate, reference compound]", "system-under-test": "bovine trypsin (Bos taurus)", "answer-label": "False"}
{"compound": "N=C(N)c1ccc(CNC(=S)Nc2cccc(I)c2)cc1 [Compound T-0]", "system-under-test": "bovine trypsin (Bos taurus)", "answer-label": "False"}
